- Tested on: NCI/ADR-RES
- METHOD NOTES: Cytotoxicity against DOX-resistant human MCF7/ADR cells assessed as cell growth inhibition at 5 uM incubated for 48 hrs by CCK8 assay relative to control
- Assay type: functional
Please go through the items and note down their inhibition at 5 µM.
Field: numeric (%). Do not append units.

Record COc1ccc(-c2ccc(C(=O)N3CCc4cc(OC)c(OC)cc4C3)o2)cc1 , field inhibition at 5 µM: 25.7

Record COc1cc2c(cc1OC)CN(C(=O)c1ccc(-c3ccc(NC(=O)c4c[nH]c5ccccc45)cc3)o1)CC2 , field inhibition at 5 µM: 18.2

Record COc1cc2c(cc1OC)CN(C(=O)c1ccc(-c3ccc(NC(C)=O)cc3)o1)CC2 , field inhibition at 5 µM: 10.1

Record COc1cc2c(cc1OC)CN(C(=O)c1ccc(-c3ccc(NC(=O)c4cc5cc(Br)ccc5[nH]4)cc3)o1)CC2 , field inhibition at 5 µM: 19.5

Record COc1cc2c(cc1OC)CN(C(=O)c1ccc(-c3ccc(NC(=O)/C=C/c4ccccc4)cc3)o1)CC2 , field inhibition at 5 µM: 14.6

Record COc1cc2c(cc1OC)CN(C(=O)c1ccc(-c3ccc(NC(=O)c4csc5ccccc45)cc3)o1)CC2 , field inhibition at 5 µM: 41.9

Record COc1cc2c(cc1OC)CN(C(=O)c1ccc(-c3ccc(NC(=O)c4cc5ccccc5[nH]4)cc3)o1)CC2 , field inhibition at 5 µM: 15.1

Record COc1cc2c(cc1OC)CN(C(=O)c1ccc(-c3ccc(NC(=O)C(C)(C)C)cc3)o1)CC2 , field inhibition at 5 µM: 23.3

---

- Tested on: MCF7
- METHOD NOTES: Cytotoxicity against human MCF7 cells assessed as cell growth inhibition at 5 uM incubated for 48 hrs by CCK8 assay relative to control
- Assay type: functional
Please go through the items and note down their inhibition at 5 µM.
Field: numeric (%). Do not append units.

Record COc1cc2c(cc1OC)CN(C(=O)c1ccc(-c3ccc(NC(=O)c4csc5ccccc45)cc3)o1)CC2 , field inhibition at 5 µM: 37.3

Record COc1cc2c(cc1OC)CN(C(=O)c1ccc(-c3ccc(NC(=O)c4cccc5[nH]ccc45)cc3)o1)CC2 , field inhibition at 5 µM: 7.6

Record COc1cc2c(cc1OC)CN(C(=O)c1ccc(-c3ccc(NC(=O)c4cc5ccc(F)cc5[nH]4)cc3)o1)CC2 , field inhibition at 5 µM: 28.1

Record COc1cc2c(cc1OC)CN(C(=O)c1ccc(-c3ccc(NC(=O)c4cc5c(F)cc(F)cc5[nH]4)cc3)o1)CC2 , field inhibition at 5 µM: 9.1

---

Please go through the items and note down their inhibition at 5 µM.
- System: MCF7
- METHOD NOTES: Cytotoxicity against human MCF7 cells assessed as cell growth inhibition at 5 uM incubated for 48 hrs by CCK8 assay relative to control
- Assay type: functional

Record COc1cc2c(cc1OC)CN(C(=O)c1ccc(-c3ccc(NC(=O)c4ccc5ccccc5c4)cc3)o1)CC2 , field inhibition at 5 µM: 29.5%

Record COc1cc2c(cc1OC)CN(C(=O)c1ccc(-c3ccc(NC(=O)c4cccc5ccccc45)cc3)o1)CC2 , field inhibition at 5 µM: 34.8%

Record COc1cc2c(cc1OC)CN(C(=O)c1ccc(-c3ccc(NC(=O)c4cc5cc([N+](=O)[O-])ccc5[nH]4)cc3)o1)CC2 , field inhibition at 5 µM: 5.1%

Record COc1cc2c(cc1OC)CN(C(=O)c1ccc(-c3ccc(NC(=O)C4CC4)cc3)o1)CC2 , field inhibition at 5 µM: 12.2%

Record COc1cc2c(cc1OC)CN(C(=O)c1ccc(-c3ccc(NC(=O)C(C)C)cc3)o1)CC2 , field inhibition at 5 µM: 19.1%

Record COc1cc2c(cc1OC)CN(C(=O)c1ccc(-c3ccc(NC(=O)c4cc5cc(C)ccc5[nH]4)cc3)o1)CC2 , field inhibition at 5 µM: 8.1%
